# Test system: SK-MEL-28 melanoma
# Assay Protocol: NCI tumour cell line growth inhibition, 48 h
Measurement Name: TGI

Item CC(C)(C)OC(=O)NC(CCC(=O)OCc1ccccc1)C(=O)NCCCO (stereo not given) with SK-MEL-28 melanoma - TGI?
> 100 µM

Item CN1C(=O)C(c2c[nH]c3ccccc23)N(C)C(=O)C1c1c[nH]c2ccccc12 (stereo not given) with SK-MEL-28 melanoma - TGI?
> 100 µM

Item O=C(Nc1ccc2[nH]c(=S)sc2c1)Nc1ccccc1F with SK-MEL-28 melanoma - TGI?
> 100 µM

Item COc1cc2c(cc1OC)[C@H]1C(COC(=O)c3ccccc3)CSC(=Nc3ccccc3)N1CC2 (stereo not given in full) with SK-MEL-28 melanoma - TGI?
> 100 µM

Item Clc1ccc2nnnn2n1 with SK-MEL-28 melanoma - TGI?
63 µM

Item C=C1C(=O)O[C@H]2[C@H](OC(C)=O)[C@@H](C)CCC/C(C)=C/CC[C@@]3(C)O[C@@H]3C[C@@H]12 with SK-MEL-28 melanoma - TGI?
11.1 µM

Item CSc1sc(=S)sc1C(=O)N(C)c1ccccc1 with SK-MEL-28 melanoma - TGI?
> 100 µM

Item Cc1c(Cl)c(S(N)(=O)=O)cc2c1NC=NS2(=O)=O with SK-MEL-28 melanoma - TGI?
> 100 µM

Item COc1ccc(NC(=O)COCCOCCNC[C@@H]2C(=O)O[C@H]3[C@H]2CC/C(COC(=O)OC/C2=C/CC[C@@]4(C)O[C@H]4[C@H]4OC(=O)[C@@H](CN(C)C)[C@@H]4CC2)=C\CC[C@@]2(C)O[C@@H]32)c(O)c1C(N)=O with SK-MEL-28 melanoma - TGI?
9.57 µM

Item COc1cc([C@H]2CC(=O)C[C@H](c3cc(OC)c(OC)c(OC)c3)C23C(=O)c2ccccc2C3=O)cc(OC)c1OC with SK-MEL-28 melanoma - TGI?
> 100 µM

Item COc1ccc(C(=O)O)c2c(=O)c3cccnc3[nH]c12 with SK-MEL-28 melanoma - TGI?
> 100 µM

Item O=C(Cc1ccc(Cl)cc1)Nc1ccc2oc(-c3ccccc3)nc2c1 with SK-MEL-28 melanoma - TGI?
> 100 µM

Item COC(=O)C1=C(C(=O)OC)SC(=C(Cl)C(=S)Nc2ccccc2O)S1 with SK-MEL-28 melanoma - TGI?
> 50 µM

Item CC1=C(C)C1[N+](=O)[O-] with SK-MEL-28 melanoma - TGI?
> 100 µM

Item C/C(=N\NC(=S)N1CCN(C)CC1)c1nc2ncccc2[nH]1 with SK-MEL-28 melanoma - TGI?
> 100 µM
